# System: sar1^ts mutant yeast strain
# assay.details: sar1^ts mutant growth rescue assay (OD600)
# Format: cell-based
# test.settings: 35° C., 72 hours, 0.05 to 50 μM
property.name: rescue of the sar1^ts mutant phenotype

Record excerpt, results attached:
compound="COc1cccc2c1C(=O)c1c(O)c3c(c(O)c1C2=O)C[C@@](O)(C(=O)CO)C[C@@H]3O[C@H]1C[C@H](N)[C@H](O)[C@H](C)O1 [doxorubicin, reference compound]" property_name="rescue of the sar1^ts mutant phenotype" result="not detected"
compound="O=C1CC(c2ccccc2)c2ccc3ccccc3c2N1 (stereo not shown) [Cpd. II.1]" property_name="rescue of the sar1^ts mutant phenotype" result="not detected"
compound="N/C(=N\\C(=O)C1CC1)Nc1nc2ccccc2s1 [Cpd. I.3]" property_name="rescue of the sar1^ts mutant phenotype" result=rescue
compound="N=C(NC(=O)[C@@H]1C[C@@H]1c1ccccc1)Nc1nc2ccccc2o1 [Cpd. I.5]" property_name="rescue of the sar1^ts mutant phenotype" result=rescue
compound="CCC(=O)/N=C(\\N)Nc1nc2ccccc2s1 [Cpd. I.1]" property_name="rescue of the sar1^ts mutant phenotype" result=rescue
compound="O=C1CC(c2cccc(Cl)c2)c2ccc(-c3ccccc3)cc2N1 (stereo not shown) [II.27]" property_name="rescue of the sar1^ts mutant phenotype" result="not detected"

Okay, next one:
Briefly, rescue of the sar1^ts mutant phenotype measured for O=C1CC(c2cccc(Cl)c2)c2ccc3c(c2N1)CCC3 (stereo not shown) [Cpd. II.2] : not detected
